biological target: Inhibitor of nuclear factor kappa-B kinase subunit beta (Homo sapiens) (UniProt O14920); test: Inhibition of IKBKB (unknown origin) at 500 nM
Sequence (O14920 whole entry): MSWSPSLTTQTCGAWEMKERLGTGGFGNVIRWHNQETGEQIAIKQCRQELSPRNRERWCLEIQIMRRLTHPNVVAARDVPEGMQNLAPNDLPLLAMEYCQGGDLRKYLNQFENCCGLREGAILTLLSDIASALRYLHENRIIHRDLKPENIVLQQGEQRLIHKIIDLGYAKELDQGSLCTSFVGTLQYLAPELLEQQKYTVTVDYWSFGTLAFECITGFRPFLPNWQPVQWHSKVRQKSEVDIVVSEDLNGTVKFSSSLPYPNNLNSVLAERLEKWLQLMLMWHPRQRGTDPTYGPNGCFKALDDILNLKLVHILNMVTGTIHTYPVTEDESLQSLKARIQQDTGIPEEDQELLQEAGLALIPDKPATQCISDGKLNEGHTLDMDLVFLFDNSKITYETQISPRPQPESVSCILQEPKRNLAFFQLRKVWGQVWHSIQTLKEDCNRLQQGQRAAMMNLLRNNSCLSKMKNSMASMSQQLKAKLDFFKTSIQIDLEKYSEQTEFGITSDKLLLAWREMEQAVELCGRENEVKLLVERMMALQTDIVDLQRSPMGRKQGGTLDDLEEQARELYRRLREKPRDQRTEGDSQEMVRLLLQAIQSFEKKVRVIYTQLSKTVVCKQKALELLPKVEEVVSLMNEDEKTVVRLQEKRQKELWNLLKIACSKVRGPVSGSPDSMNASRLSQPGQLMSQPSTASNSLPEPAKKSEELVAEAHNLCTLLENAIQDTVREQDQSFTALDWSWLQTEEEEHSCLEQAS
readout_kind: inhibition (%)

> print(dat)
                              smiles.string                              assay.target  numeric.readout
1  C[C@@H](Nc1ncnc2sc(-c3ccccc3C(N)=O)cc12)c1ccccc1  Inhibitor of nuclear factor kappa-B kinase subunit beta (Homo sapiens) (UniProt O14920)                6
2  C[C@@H](Nc1ncnc2sc(-c3ccc(C(=O)NCCN(C)C)cc3)cc12)c1ccccc1  Inhibitor of nuclear factor kappa-B kinase subunit beta (Homo sapiens) (UniProt O14920)                7
3  C#Cc1cccc(Nc2ncnc3sc(-c4ccc(CO)cc4OC)cc23)c1  Inhibitor of nuclear factor kappa-B kinase subunit beta (Homo sapiens) (UniProt O14920)               -4
4  COc1cc(C(N)=O)ccc1-c1cc2c(N[C@H](CO)c3ccccc3)ncnc2s1  Inhibitor of nuclear factor kappa-B kinase subunit beta (Homo sapiens) (UniProt O14920)                3
5  COc1ccc(C(=O)NCCN(C)C)cc1-c1cc2c(N[C@H](C)c3ccccc3)ncnc2s1  Inhibitor of nuclear factor kappa-B kinase subunit beta (Homo sapiens) (UniProt O14920)                3
